Assay: NCI Yeast Anticancer Drug Screen. Data for the rad50 strain (AID 155);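 also: 0% = growth of vehicle-only cultures of the same strain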
Conditions: S. cerevisiae rad50 strain growth inhibition; at 3.7 µM; hits give high values
Description: Growth inhibition of yeast strains with defined genetic alterations is measured as a screen for potential anti-cancer activity. Selected strains with alterations in DNA damage repair or cell cycle control were exposed to compounds and growth inhibition was measured relative to vehicle treated controls. The strain used in this assay is rad50
The panel holds about 79,000 compounds, 15% with a hit somewhere; the sample as a whole holds those more often.
reported_endpoint: growth inhibition (%)
Just the number in %, nothing appended.

[Q] Form field: reported growth inhibition of COc1cc(CSc2ccc(O)cc2)cc(O)c1O
[A] 6

[Q] Form field: reported growth inhibition of CC(=O)OCC(C)Cc1cc2c(cc1Br)OCO2 (stereo unspecified)
[A] -19

[Q] Form field: reported growth inhibition of CCCC(=O)Oc1ccc(/C=N/NC(N)=S)nc1
[A] -16

[Q] Form field: reported growth inhibition of Cc1nc2ccc(N=NN(C)C)cc2[nH]1
[A] 16

[Q] Form field: reported growth inhibition of c1ccc(CCN2CCc3ccccc3C2)cc1
[A] 2

[Q] Form field: reported growth inhibition of CS(=O)(=O)OCCN(CCOS(C)(=O)=O)c1ccc(C=Nc2ccc(-c3csc(COc4ccccc4)n3)cc2)cc1
[A] -5

[Q] Form field: reported growth inhibition of Cc1ccc(Cl)cc1NC(=O)OCCN(C)C(=O)Nc1cc(Cl)ccc1C
[A] -34

[Q] Form field: reported growth inhibition of Nc1ccc(F)cc1S
[A] -40

[Q] Form field: reported growth inhibition of CCCCCCOC(=O)NCCOC(=O)Nc1ccccc1
[A] 5

[Q] Form field: reported growth inhibition of Cc1cccc(C(C)(C)C)c1NC(=O)C(C#N)C1=C(Cl)C(=O)c2ccccc2C1=O (stereo unspecified)
[A] 24

[Q] Form field: reported growth inhibition of CCOC(=O)C1=C(C)NC(C)=C(C(=O)OCCNC(=O)c2ccc(N=[N+]=[N-])cc2)C1c1ccccc1C(F)(F)F (stereo unspecified)
[A] -1

###

assay: NCI Yeast Anticancer Drug Screen. Data for the mec2-1 strain (AID 157); settings: S. cerevisiae mec2-1 strain, at 5.0 µM (retest, dose inferred, filed as 0.5), hits give high values
The panel holds about 79,000 compounds, 15% with a hit somewhere; the sample as a whole holds those more often. Activity calls are given as the source filed them. No stated cut-off is given here; in the data, active means growth inhibition above about 70%; inactive means the rest.
reported_endpoint: growth inhibition

[Q] Form field: reported growth inhibition of O=C(CC(C(=O)O)N1CCOCC1)c1ccccc1 (stereo unspecified)
[A] -2% (inactive)

[Q] Form field: reported growth inhibition of CN(C)c1ccc(C2CC(C)(O)Oc3cc4c(cc32)OCO4)cc1 (stereo unspecified)
[A] -20% (inactive)

[Q] Form field: reported growth inhibition of COc1ccc([N+](=O)[O-])c2c(NCCCN(C)C)c3ccccc3nc12
[A] -3% (inactive)

[Q] Form field: reported growth inhibition of Cc1cc2c(cc1C)[n+]([O-])c(-c1nc3ccccc3s1)c(N)[n+]2[O-]
[A] 23% (inactive)

[Q] Form field: reported growth inhibition of Oc1ccc2ccccc2c1CCc1c(O)ccc2ccccc12
[A] -6% (inactive)

[Q] Form field: reported growth inhibition of CCN(CC)CCOc1cc(C)c2cc(Cc3ccccc3)ccc2n1
[A] -2% (inactive)

[Q] Form field: reported growth inhibition of C/C=C/SC(=Nc1ccccc1)Nc1ccccc1
[A] -9% (inactive)

[Q] Form field: reported growth inhibition of CC(C)(C)C1=CC(=CC=C2C=CN(CCCCCCCCCCCO)C=C2)C=C(C(C)(C)C)C1=O
[A] 99% (active)

[Q] Form field: reported growth inhibition of Cc1cc(C)nc(NS(=O)(=O)c2ccc(Nc3c4ccccc4nc4c(C(=O)NCCO)cccc34)cc2)n1
[A] -13% (inactive)

[Q] Form field: reported growth inhibition of CC(C)CCCC(C)C1CCC2C3CCC4=CC(=O)/C(=C\O)CC4(C)C3CCC12C (stereo unspecified)
[A] 3% (inactive)

[Q] Form field: reported growth inhibition of Oc1[nH]c2ccccc2c1N=NC(=S)N1CCCCC1
[A] 41% (inactive)

###

Experiment: NCI Yeast Anticancer Drug Screen. Data for the mec2-1 strain (AID 157)
Conditions: S. cerevisiae mec2-1 strain, at 1.2 µM, hits give high values
Procedure: Growth inhibition of yeast strains with defined genetic alterations is measured as a screen for potential anti-cancer activity. Selected strains with alterations in DNA damage repair or cell cycle control were exposed to compounds and growth inhibition was measured relative to vehicle treated controls. The strain used in this assay is mec2-1
The panel holds about 79,000 compounds, 15% with a hit somewhere; the sample as a whole holds those more often.
reported_endpoint: growth inhibition (%)
Just the number in %, nothing appended.

[Q] Form field: reported growth inhibition of CCOC(=O)c1[nH]n(-c2ccccc2)c(=O)c1C=NC(=S)C(N)=S
[A] 5

[Q] Form field: reported growth inhibition of CCOC(=O)C(C(=O)OCC)=P(c1ccccc1)(c1ccccc1)c1ccccc1
[A] 0

[Q] Form field: reported growth inhibition of COc1nc2c(c(=O)n1C)N=C(c1ccccc1)[C@H](C(CC(=O)c1ccccc1)c1ccccc1)C(c1ccccc1)N2 (some centres undefined)
[A] -16

[Q] Form field: reported growth inhibition of CC[N+](CC)(CC)c1ccccc1
[A] -5

[Q] Form field: reported growth inhibition of O=C(NNc1ccccc1)C(O)C(O)C(O)C(O)C(O)CO (centres undefined)
[A] -2

[Q] Form field: reported growth inhibition of O=C(c1ccc([N+](=O)[O-])cc1)C1N=NCC1c1ccccc1 (centres undefined)
[A] -2

[Q] Form field: reported growth inhibition of Nc1ncnc2c1ncn2C1OC(CO)CC1O (centres undefined)
[A] -7

[Q] Form field: reported growth inhibition of Oc1ccc2c(c1)C(O)CCCC2 (centres undefined)
[A] -3

[Q] Form field: reported growth inhibition of CCCCN(CCCC)CCC(O)c1cc2c(Cl)cc(Cl)cc2c2cc(C(F)(F)F)ccc12 (centres undefined)
[A] 10

[Q] Form field: reported growth inhibition of CC(C)(C)N=C(NO)c1ccccc1
[A] -3

[Q] Form field: reported growth inhibition of O=C(/C=C/c1cc(Cl)cc(Cl)c1O)c1cccc(O)c1
[A] -19

[Q] Form field: reported growth inhibition of CN(C)CCNC(=O)c1cccc2cc([N+](=O)[O-])ccc12
[A] -6

[Q] Form field: reported growth inhibition of O=C1NC(=O)c2ccc([N+](=O)[O-])c3cccc1c23
[A] 11

[Q] Form field: reported growth inhibition of O=C1N=C2SC=C(NC(=S)Nc3ccccc3)N2NC12c1ccccc1-c1ccccc12
[A] 15

[Q] Form field: reported growth inhibition of COc1ccc(NC(=O)CC2SC(=Nc3ccccc3C)NC2=O)c([N+](=O)[O-])c1 (centres undefined)
[A] 1

[Q] Form field: reported growth inhibition of CNC(=O)OCc1c(COC(=O)NC)c(-c2ccc(Cl)cc2)n2c1CCC2
[A] -55

[Q] Form field: reported growth inhibition of Cc1cc2cc3cc(C)c(N)cc3nc2cc1N
[A] -18

[Q] Form field: reported growth inhibition of CCCCCCOC(=O)NCCOC(=O)Nc1ccccc1
[A] 0

[Q] Form field: reported growth inhibition of O=C(NCCCl)Sc1ccc(Cl)cc1
[A] 1

[Q] Form field: reported growth inhibition of CC(C)(C)[Si](C)(C)OCC1CCC(n2cnc3c(NC(=O)c4ccccc4)ncnc32)O1 (centres undefined)
[A] -3

[Q] Form field: reported growth inhibition of CCOc1ccccc1N=Cc1c2ccccc2cc2ccccc12
[A] -18

[Q] Form field: reported growth inhibition of O=[n+]1c2ccccc2n([O-])c2cc(Br)ccc21
[A] 18

[Q] Form field: reported growth inhibition of CC(C)CCCC(C)C1CCC2C3CCC4=CC(=O)/C(=C\O)CC4(C)C3CCC12C (centres undefined)
[A] -2

[Q] Form field: reported growth inhibition of CC(=O)ON=C1C=CC(=C(C#N)c2ccc(Cl)cc2)C=C1
[A] -1

###

test: NCI Yeast Anticancer Drug Screen. Data for the mlh1 strain (AID 171);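 also: 0% = growth of vehicle-treated control cultures of the same strain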; settings: S. cerevisiae mlh1 strain growth inhibition; at 3.7 µM; hits give high values
The panel holds about 79,000 compounds, 15% with a hit somewhere; the sample as a whole holds those more often.
reported_endpoint: growth inhibition (%)
Just the number in %, nothing appended.

[Q] Form field: reported growth inhibition of CC1CC[C@]2(C(=O)O)CCC3(C)C(=CC(=O)C4[C@@]5(C)CCC(=O)C(C)(C)C5CC[C@]43C)[C@@H]2[C@H]1C (stereo not given in full)
[A] 14

[Q] Form field: reported growth inhibition of CC(C)(C)c1ccc(NS(=O)(=O)c2ccc(N)cc2)cc1
[A] 3

[Q] Form field: reported growth inhibition of Brc1ccccc1-c1ncc(-c2ccccc2)o1
[A] -13

[Q] Form field: reported growth inhibition of c1ccc2c(c1)sc1c3cnccc3ccc21
[A] -1

[Q] Form field: reported growth inhibition of CC1=CC(=C(c2ccc(N)cc2)c2ccc(N)cc2)C=CC1=N
[A] -4

[Q] Form field: reported growth inhibition of COc1cc(C2c3cc4c(cc3OC(OC(C)=O)C2C)OCO4)cc(OC)c1OC (stereo not given)
[A] -5

[Q] Form field: reported growth inhibition of COc1cccc2c1C(=O)c1c(O)c3c(c(O)c1C2=O)C[C@@](O)(C(C)=O)C[C@@H]3OC1CC(OC(C)=O)C(OC(C)=O)C(C)O1 (stereo not given in full)
[A] -37

[Q] Form field: reported growth inhibition of CCN(CC)CCNc1ccc2ncn3c4cc(OC)c(OC)c(=O)c4c(O)c1c23
[A] 0

[Q] Form field: reported growth inhibition of Cc1cc2cc3cc(C)c(N)cc3nc2cc1N
[A] 3

[Q] Form field: reported growth inhibition of C=C(Cl)COC(=O)Nc1cccc(Cl)c1
[A] -1
